What growth was measured for each of the following?
- System: IGROV1 ovarian
- ASSAY_EXPLANATION: NCI-60 one-dose screen, 48 h (100 = growth as untreated, 0 = no growth, -100 = all killed)
- MEASUREMENT_CONTEXT: 10 µM unless noted
The panel holds about 83,000 compounds, 20% with a hit somewhere; the sample as a whole holds those more often.
Use % as the unit, but write only the number.

Note to self: growth of CN(CCC#N)c1ccc(/C=C(\C#N)c2cccc(C(F)(F)F)c2)cc1 with IGROV1 ovarian was 65.7

Note to self: growth of Cc1ccc(S(=O)(=O)N/N=C2\CC3CCC2C3)cc1 (stereo unspecified) with IGROV1 ovarian was 101

Note to self: growth of COc1cc(-c2nn(-c3ccc(NC(=O)c4ccc(Cl)c(Cl)c4)cc3)cc2-c2ccncc2)ccc1Cl with IGROV1 ovarian was 96.3

Note to self: growth of CNc1nc2ncn(C)c2c(=O)[nH]1 with IGROV1 ovarian was 94.2

Note to self: growth of COc1ccc(Cn2cc3c(c2-c2ccccc2)CCc2cnoc2-3)cc1OC with IGROV1 ovarian was 37.7

Note to self: growth of O=C(/C=C\c1ccc(NCc2ccc(C(=O)O)cc2)cc1)CCl with IGROV1 ovarian was 90.4

Note to self: growth of CC(C)(C)C(=O)CCCCCCCC/C=C/CCCC(O)c1ccco1 (stereo unspecified) with IGROV1 ovarian was 116

Note to self: growth of Cc1ccc(S(=O)(=O)NC(CCC(=O)Nc2ccccc2)C(=O)Nc2ccccc2)cc1 (stereo unspecified) with IGROV1 ovarian was -25.1

Note to self: growth of COc1cc(-c2nn(-c3ccc(NC(=O)c4cc(Cl)cc(Cl)c4)cc3)cc2-c2ccncc2)ccc1Cl with IGROV1 ovarian was 116

Note to self: growth of COc1ccc2sc(-n3nc4nc5n(c(=O)c4c3N)-c3ccccc3Sc3ccccc3-5)nc2c1 with IGROV1 ovarian was 67.9

Note to self: growth of CC1(C)C(O)NC(Cl)=C(C#N)C1(C#N)C#N (stereo unspecified) with IGROV1 ovarian was -10.9

* * *

- Tested on: MCF7 breast
- ASSAY_EXPLANATION: NCI-60 one-dose screen, 48 h (100 = growth as untreated, 0 = no growth, -100 = all killed)
- MEASUREMENT_CONTEXT: 10 µM unless noted
About 83,000 compounds went through this panel and 20% of them were active in at least one assay; those are over-represented in the sample as a whole.
Decision: growth >= 90% yields yes, all other cases yield no.

Exercise: Has COC(=O)C(C)[C@H]1CC[C@@H]2[C@]1(C)CC=C1[C@]23C=C[C@]2(C[C@@H](OC(C)=O)CC[C@]12C)C(C(=O)OC)C3C(=O)OC (some centres undefined) a recorded growth greater than or equal to 90%?
Solution: no

Exercise: Has Cc1nc(NC(=O)NC2CCCCC2)sc1C(=O)NN a recorded growth greater than or equal to 90%?
Solution: yes

Exercise: Has CC(CCN1CCN(CCC(C)CC(C)(C)C)C1CC(C)CC(C)(C)C)CC(C)(C)C (centres undefined) a recorded growth greater than or equal to 90%?
Solution: yes

Exercise: Has COc1cc2oc(-c3ccc(NC(=O)c4ccccc4)cc3)cc(=O)c2c(OC)c1OC a recorded growth greater than or equal to 90%?
Solution: no

Exercise: Has [2H]c1nc(=Nc2cc(NC(=O)C=C)c(N(C)CCN(C)C)cc2OC)[nH]c(-c2cn(C([2H])([2H])[2H])c3ccccc23)c1[2H] a recorded growth greater than or equal to 90%?
Solution: no

Exercise: Has NC(=O)CC(NC(=O)COc1ccc(Cl)cc1Cl)C(=O)O (centres undefined) a recorded growth greater than or equal to 90%?
Solution: yes

Exercise: Has COc1cc2c(cc1OC)C(Cc1cc(OC)c(OC)cc1[N+](=O)[O-])=NCC2 a recorded growth greater than or equal to 90%?
Solution: yes

Exercise: Has O=C1C(Cl)=C(Nc2ccc(Nc3ccccc3)c(NC3=C(Cl)C(=O)c4ccccc4C3=O)c2)C(=O)c2ccccc21 a recorded growth greater than or equal to 90%?
Solution: no

* * *

- Tested on: HS 578T breast
- ASSAY_EXPLANATION: NCI-60 one-dose screen, 48 h
- MEASUREMENT_CONTEXT: 10 µM unless noted
About 83,000 compounds went through this panel and 20% of them were active in at least one assay; those are over-represented in the sample as a whole. The source made the active and inactive calls. How the source made its calls: active means growth percent below 10; inactive means the rest.
In this exercise, the only acceptable responses are label 1 for active, label 0 for inactive

Exercise: Given Nc1nc2c(c3cnccc13)C(c1ccc(Cl)c(Cl)c1)Cc1cnccc1-2 (centres undefined) , state the outcome it received in this test.
Solution: label 1

Exercise: Given CCCCN(CCCC)CC(O)CN(CC)CC (centres undefined) , state the outcome it received in this test.
Solution: label 0

Exercise: Given CCOC(=O)c1cc(-c2ccc(OC)cc2)[nH]c1NNC(=O)CCOC , state the outcome it received in this test.
Solution: label 0

Exercise: Given COc1cc2ncnc(-n3ncc4cc(NC(=O)Nc5ccccc5)ccc43)c2cc1OC , state the outcome it received in this test.
Solution: label 1

Exercise: Given O=C(Cc1ccccc1[N+](=O)[O-])c1ccc2c(c1)OCO2 , state the outcome it received in this test.
Solution: label 0

Exercise: Given COc1cc(N2C(=O)C=CC2=O)ccc1N1C(=O)C=CC1=O , state the outcome it received in this test.
Solution: label 0

Exercise: Given C/C=C(/C)C(=O)OC1C=C(CO)C(=O)C(OC(=O)C2(C)OC2C)C1C(C)C (centres undefined) , state the outcome it received in this test.
Solution: label 0

Exercise: Given Brc1ccc(-c2nc3ccccc3s2)cc1 , state the outcome it received in this test.
Solution: label 0

Exercise: Given Cc1ccccc1-n1c(C)nc2cc(NC(=O)c3ccc(Cl)cc3)ccc2c1=O , state the outcome it received in this test.
Solution: label 0

Exercise: Given CC([C@H]1CC=C2C3CCC4=C[C@@H](N(C)C)CC[C@]4(C)C3CC[C@@]21C)N(C)C (some centres undefined) , state the outcome it received in this test.
Solution: label 0

Exercise: Given CCN(CC)CCCNc1c2ccc(Cl)cc2nc2ccc(OC)cc12 , state the outcome it received in this test.
Solution: label 0

Exercise: Given CCn1cnc(C[C@H](NC(=O)[C@@H](NC(=O)Nc2cc(C(F)(F)F)cc(C(F)(F)F)c2)C(C)C)C(=O)OC)c1 , state the outcome it received in this test.
Solution: label 1

Exercise: Given C=CCC(CCC(CC=C)C(=O)OCC)C(=O)OCC (centres undefined) , state the outcome it received in this test.
Solution: label 0

Exercise: Given Cc1ccc(C(=O)C(Br)C(Br)c2ccccc2)cc1 (centres undefined) , state the outcome it received in this test.
Solution: label 0

Exercise: Given COc1cc2c(/C=C3\C(=O)Nc4ccc(Br)cc43)c(Cl)n(C)c2cc1C , state the outcome it received in this test.
Solution: label 0

Exercise: Given CN1CCN(Cc2ccc(NC(=O)c3cncc(C#Cc4c(N)ncc5ccc(F)cc45)c3)cc2C(F)(F)F)CC1 , state the outcome it received in this test.
Solution: label 1

Exercise: Given O=Nc1ccc(O)c2ccccc12 , state the outcome it received in this test.
Solution: label 0

Exercise: Given CC(=O)Nc1nc(C)c(C(=O)NNS(=O)(=O)c2ccccc2)s1 , state the outcome it received in this test.
Solution: label 0

Exercise: Given CN(C)CCOC(=O)C(C)(C)C , state the outcome it received in this test.
Solution: label 0

Exercise: Given CCOC(=O)C1=C(c2ccccc2)NC(=O)NC1CN1C(=O)c2ccccc2C1=O (centres undefined) , state the outcome it received in this test.
Solution: label 0

Exercise: Given Oc1ccccc1\C=N/N=C/C=C/c1ccccc1 , state the outcome it received in this test.
Solution: label 0

Exercise: Given COC(=O)c1ccc2[nH]c(O)c(C(=Nc3ccc(N(C)C(=O)CN4CCN(C)CC4)cc3)c3cccc(OC)c3)c2c1 , state the outcome it received in this test.
Solution: label 1

Exercise: Given C/C=C/C/C=C/[C@H](C)C[C@H](O)[C@@H]1C[C@@H]2O[C@H]2/C=C/[C@@H]2OC(C)(C)O[C@H]2/C=C/C[C@H](C)CC(=O)O1 , state the outcome it received in this test.
Solution: label 1

Exercise: Given Clc1ccc(I)c2ccccc12 , state the outcome it received in this test.
Solution: label 0

Exercise: Given O=C(N/N=C\c1ccc(-c2ccc(Br)cc2)o1)c1cc2oc(-c3cccc(C(F)(F)F)c3)cc2[nH]1 , state the outcome it received in this test.
Solution: label 0

Exercise: Given CCC(C)(C)c1ccc(OCCCCCCN2CCNCC2)cc1 , state the outcome it received in this test.
Solution: label 0

Exercise: Given CCOC(=O)NC1=NCC(C)(C)S1 , state the outcome it received in this test.
Solution: label 0

Exercise: Given C=CCNC(=S)NNc1ccc([N+](=O)[O-])cn1 , state the outcome it received in this test.
Solution: label 0

Exercise: Given COc1cccc(CNC(=O)c2cccc(C3CC(=O)c4c(cc(OC)c(OC)c4OC)O3)c2)c1 (centres undefined) , state the outcome it received in this test.
Solution: label 0

Exercise: Given CC(C)OC(=O)c1ccc2n1CCCc1cnc(Nc3ccccc3)nc1-2 , state the outcome it received in this test.
Solution: label 0

Exercise: Given CCOC(=O)c1c2c(cn1Cc1ccccc1)-c1oncc1CC2 , state the outcome it received in this test.
Solution: label 0

Exercise: Given COc1ccc2sc(-n3nc4nc5n(c(=O)c4c3N)-c3ccccc3Sc3ccccc3-5)nc2c1 , state the outcome it received in this test.
Solution: label 0

Exercise: Given O=C(Nc1ccc(-n2cc(-c3ccncc3)c(-c3ccc(Cl)c(O)c3)n2)cc1)c1cc(C(F)(F)F)cc(C(F)(F)F)c1 , state the outcome it received in this test.
Solution: label 1

Exercise: Given COc1ccc(-c2cc(C#N)c(NNC(C)=O)[nH]2)cc1 , state the outcome it received in this test.
Solution: label 0

Exercise: Given O=C(Nc1ccc(-n2cc(-c3ccncc3)c(-c3ccc(Cl)c(O)c3)n2)cc1)Nc1cc(C(F)(F)F)cc(C(F)(F)F)c1 , state the outcome it received in this test.
Solution: label 1

Exercise: Given CCOC(=O)C(C)C(C)(O)c1ccccc1 (centres undefined) , state the outcome it received in this test.
Solution: label 0

Exercise: Given COc1cc2oc(-c3ccc(NC(=O)c4ccccc4)cc3)cc(=O)c2c(OC)c1OC , state the outcome it received in this test.
Solution: label 0

Exercise: Given O=C(O)CC1Cc2ccccc2C1C(=O)O (centres undefined) , state the outcome it received in this test.
Solution: label 0

Exercise: Given COC(=O)c1ccc2[nH]c(O)c(C(=Nc3ccc(N(C)C(=O)CN4CCN(C)CC4)cc3)c3ccc(CCO)cc3)c2c1 , state the outcome it received in this test.
Solution: label 0

Exercise: Given COc1ccc(Cn2cc3c(c2)-c2oncc2CC3)cc1OC , state the outcome it received in this test.
Solution: label 1

Exercise: Given CC[C@@H](C)/C=C(C)/C=C/C(=O)c1c(O)c(-c2ccc(OC(=O)[C@@]34CC[C@@](C)(C(=O)O3)C4(C)C)cc2)cn(O)c1=O , state the outcome it received in this test.
Solution: label 0

Exercise: Given N#Cc1c(N)nc(Nc2nc3ccccc3[nH]2)nc1-c1ccc(Cl)cc1 , state the outcome it received in this test.
Solution: label 0

Exercise: Given CCC(C)(CC)c1ccc(O)c(C)c1 , state the outcome it received in this test.
Solution: label 0

Exercise: Given CCOc1ccc2nc3ccc(Cl)cc3nc2c1 , state the outcome it received in this test.
Solution: label 0
